Catalogue of Percent Effect readings, one per entry.
- TESTED_TARGET: Sialic acid-binding Ig-like lectin 9 (Homo sapiens) (UniProt Q9Y336)
- Sequence (Q9Y336 whole entry): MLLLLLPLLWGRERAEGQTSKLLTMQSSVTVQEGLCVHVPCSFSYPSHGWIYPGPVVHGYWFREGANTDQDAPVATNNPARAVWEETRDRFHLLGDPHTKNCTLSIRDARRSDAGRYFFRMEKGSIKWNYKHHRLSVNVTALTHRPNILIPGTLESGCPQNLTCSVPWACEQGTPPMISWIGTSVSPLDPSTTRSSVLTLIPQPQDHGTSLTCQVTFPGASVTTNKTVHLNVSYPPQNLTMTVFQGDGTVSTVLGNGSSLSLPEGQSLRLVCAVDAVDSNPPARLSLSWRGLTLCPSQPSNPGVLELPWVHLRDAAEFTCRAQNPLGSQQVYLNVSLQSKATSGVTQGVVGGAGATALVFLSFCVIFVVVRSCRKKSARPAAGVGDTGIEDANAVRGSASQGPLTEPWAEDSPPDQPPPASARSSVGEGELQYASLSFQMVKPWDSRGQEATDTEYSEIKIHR
- METHOD_DESCRIPTION: Hs-Siglec9 ALPHAscreen SOP 20170721
- Design: scale not given: direction of the effect not stated beside the values
- CONDITION_LABEL: 10 µM
Enter your answer as a number in %; do not include the unit.

Study these solved cases before continuing.
Nc1nccc(N2CCC(Cc3ccccc3Cl)(C(=O)O)CC2)n1 ... 22.5
Cc1nc(CN2CCCC2c2ccsc2)nc2ccccc12 (stereo unspecified) ... 2.94
COc1ccc(C2CC(=O)Nc3c2cnn3C2CCCC2)cc1 (stereo unspecified) ... -0.717

Inquiry: Lab note: need Percent Effect for O=C(NCc1ccco1)[C@@]12CCO[C@@H]1CCN(CCN1CCCC1)C2 on Sialic acid-binding Ig-like lectin 9 (Homo sapiens) (UniProt Q9Y336), anyone have it?
Reply text: -2.5

----------
- TESTED_TARGET: Chromo domain-containing protein 1 (Saccharomyces cerevisiae (strain ATCC 204508 / S288c) (Baker's yeast)) (UniProt P32657)
- Sequence (P32657 whole entry, the tested form may be a part): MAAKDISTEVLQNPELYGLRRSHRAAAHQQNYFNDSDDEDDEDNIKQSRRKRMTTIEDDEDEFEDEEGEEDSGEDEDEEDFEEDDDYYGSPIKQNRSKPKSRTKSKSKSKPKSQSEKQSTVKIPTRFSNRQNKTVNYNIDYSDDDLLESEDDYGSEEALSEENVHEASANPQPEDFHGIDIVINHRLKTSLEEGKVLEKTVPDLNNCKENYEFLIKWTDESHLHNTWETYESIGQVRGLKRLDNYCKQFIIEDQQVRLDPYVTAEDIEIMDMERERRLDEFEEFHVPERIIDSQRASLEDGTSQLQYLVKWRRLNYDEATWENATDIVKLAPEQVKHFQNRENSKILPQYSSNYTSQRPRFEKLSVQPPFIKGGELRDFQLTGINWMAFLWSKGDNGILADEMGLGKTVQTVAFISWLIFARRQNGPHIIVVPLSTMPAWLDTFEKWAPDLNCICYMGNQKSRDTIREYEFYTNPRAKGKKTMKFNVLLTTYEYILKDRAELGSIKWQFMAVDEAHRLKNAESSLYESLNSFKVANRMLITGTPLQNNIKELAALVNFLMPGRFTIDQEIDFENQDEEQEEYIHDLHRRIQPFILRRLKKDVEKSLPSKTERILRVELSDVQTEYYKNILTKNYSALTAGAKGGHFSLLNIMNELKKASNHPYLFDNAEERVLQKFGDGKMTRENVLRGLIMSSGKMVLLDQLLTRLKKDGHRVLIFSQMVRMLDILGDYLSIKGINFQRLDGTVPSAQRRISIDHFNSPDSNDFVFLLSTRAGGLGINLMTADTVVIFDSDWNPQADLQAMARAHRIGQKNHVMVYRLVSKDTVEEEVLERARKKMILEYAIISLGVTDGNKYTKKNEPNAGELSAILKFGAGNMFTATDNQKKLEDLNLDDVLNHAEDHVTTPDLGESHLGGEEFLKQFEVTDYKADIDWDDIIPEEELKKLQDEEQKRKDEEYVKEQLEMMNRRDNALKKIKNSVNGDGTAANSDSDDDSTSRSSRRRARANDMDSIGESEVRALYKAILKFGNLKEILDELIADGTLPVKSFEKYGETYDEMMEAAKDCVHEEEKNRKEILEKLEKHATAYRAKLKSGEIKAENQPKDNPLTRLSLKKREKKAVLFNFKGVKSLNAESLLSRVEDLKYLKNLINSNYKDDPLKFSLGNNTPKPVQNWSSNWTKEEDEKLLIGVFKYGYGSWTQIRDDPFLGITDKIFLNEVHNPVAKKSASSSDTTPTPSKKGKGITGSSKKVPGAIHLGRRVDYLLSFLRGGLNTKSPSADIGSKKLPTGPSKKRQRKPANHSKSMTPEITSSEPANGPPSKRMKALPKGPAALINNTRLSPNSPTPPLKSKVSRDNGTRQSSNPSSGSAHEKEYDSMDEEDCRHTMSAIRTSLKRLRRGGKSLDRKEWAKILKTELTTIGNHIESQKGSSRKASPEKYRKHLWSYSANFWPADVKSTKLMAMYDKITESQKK
- METHOD_DESCRIPTION: ScCHD-1 Enzyme Inhibition Assay; further: in the data most compounds retested in dose-response had high values
- Type: functional
- Design: scale not given: direction of the effect not stated beside the values
- CONDITION_LABEL: 30 µM
ASSAY_READOUT: Percent Effect (%)
Your answer is read as %, so omit the unit and give the number.

Worked cases, answers included:
CC1CCN(c2ncc3c(n2)CN(c2ccc4c(c2)OCO4)C3=O)CC1 ... 1.03
Cc1nc(C)n(CC2CN(CCOCC(F)(F)F)CCO2)n1 (stereo unspecified) ... -2.07
CC(C)c1ccc(-c2nnn(CCNS(C)(=O)=O)n2)cc1 ... -0.501
COC(=O)c1sccc1NC(=O)C1CCCN1C(=O)c1ccco1 (stereo unspecified) ... -2.51
COC(=O)c1ccc(N2CCN(C(=O)c3cnn(C)c3)C(C)C2)cc1 (stereo unspecified) ... -12.4

Inquiry: What value of Percent Effect has been recorded for this entry: COc1ccccc1OCc1cc(C(=O)N2C[C@H](O)[C@@H](N(C)C)C2)n[nH]1
Reply text: -2.07

----------
Listed compounds paired with reported Percent Effect
- TESTED_TARGET: Proteasome subunit beta (Trypanosoma cruzi) (UniProt O96673)
- Sequence (whole entry): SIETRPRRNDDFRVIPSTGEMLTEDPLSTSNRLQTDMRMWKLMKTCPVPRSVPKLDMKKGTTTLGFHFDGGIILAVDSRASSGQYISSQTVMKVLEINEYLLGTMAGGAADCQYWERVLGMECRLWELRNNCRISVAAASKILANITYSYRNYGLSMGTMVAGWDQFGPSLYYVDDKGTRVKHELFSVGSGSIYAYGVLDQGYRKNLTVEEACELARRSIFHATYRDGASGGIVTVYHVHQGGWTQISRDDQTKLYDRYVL
- METHOD_DESCRIPTION: Trypanosoma cruzi proteasome chymotrypsin-like activity (TcProtChymo) assay. Further: in the data most compounds retested in dose-response had high values.
- Assay type: functional
- Parameters: scale not given: direction of the effect not stated beside the values
- CONDITION_LABEL: 9.37 µM
Just the number please, in %, no unit attached.

Some compounds with recorded Percent Effect:
COCC1CN(C(=O)c2ccoc2C)Cc2nccn2C1 (configuration not stated) ... 2.03
COCCOc1cccc(C(=O)N2CCCC(n3cccn3)C2)c1 (configuration not stated) ... 2.28
CC(C)(C)C(=O)N1C[C@H](c2ccsc2)[C@H]2CN(Cc3cccs3)CC[C@H]21 ... 17.1
CC(C)c1cc(NCC(C)N2CCCC2)n2nccc2n1 (configuration not stated) ... 20.5
CC1CN(C)c2ccccc2CN1C(=O)c1ccc[nH]1 (configuration not stated) ... 12.9
CS(=O)(=O)NC1CCCN(C(=O)NCc2cc[nH]n2)C1 (configuration not stated) ... 17.1
COc1ccc(C)cc1CN1CCCC1Cn1nc(C)nc1C (configuration not stated) ... 16.6
COCC(=O)N1CCC(c2cc(C(F)(F)F)n3ccnc3n2)CC1 ... 9.85

Inquiry: I'm curious: which Percent Effect was measured for Cn1ccc(C(=O)NC2CCC23CCN(Cc2cccnc2)CC3)c1 (configuration not stated) tested on Proteasome subunit beta (Trypanosoma cruzi) (UniProt O96673)?
Reply text: 5.39

Inquiry: Tell me reported Percent Effect for COc1ncccc1C(=O)N1CCC(CNC(C)=O)CC1 , tested with Proteasome subunit beta (Trypanosoma cruzi) (UniProt O96673).
Reply text: 6.28

Inquiry: Kindly state the measured Percent Effect obtained for COCCN(CCc1ccccc1)Cc1nc2c(cnn2C)c(=O)[nH]1 with Proteasome subunit beta (Trypanosoma cruzi) (UniProt O96673).
Reply text: -0.36

Inquiry: # get_value(readout= Percent Effect, system= Proteasome subunit beta (Trypanosoma cruzi) (UniProt O96673)) for CCN1CCN(CC(O)c2ccc(OC(F)(F)F)cc2)CC1 (configuration not stated)
Reply text: 9.73

----------
- TESTED_TARGET: Tyrosyl-tRNA synthetase, putative (Trypanosoma cruzi (strain CL Brener)) (UniProt Q4DSP6)
- Sequence (whole entry): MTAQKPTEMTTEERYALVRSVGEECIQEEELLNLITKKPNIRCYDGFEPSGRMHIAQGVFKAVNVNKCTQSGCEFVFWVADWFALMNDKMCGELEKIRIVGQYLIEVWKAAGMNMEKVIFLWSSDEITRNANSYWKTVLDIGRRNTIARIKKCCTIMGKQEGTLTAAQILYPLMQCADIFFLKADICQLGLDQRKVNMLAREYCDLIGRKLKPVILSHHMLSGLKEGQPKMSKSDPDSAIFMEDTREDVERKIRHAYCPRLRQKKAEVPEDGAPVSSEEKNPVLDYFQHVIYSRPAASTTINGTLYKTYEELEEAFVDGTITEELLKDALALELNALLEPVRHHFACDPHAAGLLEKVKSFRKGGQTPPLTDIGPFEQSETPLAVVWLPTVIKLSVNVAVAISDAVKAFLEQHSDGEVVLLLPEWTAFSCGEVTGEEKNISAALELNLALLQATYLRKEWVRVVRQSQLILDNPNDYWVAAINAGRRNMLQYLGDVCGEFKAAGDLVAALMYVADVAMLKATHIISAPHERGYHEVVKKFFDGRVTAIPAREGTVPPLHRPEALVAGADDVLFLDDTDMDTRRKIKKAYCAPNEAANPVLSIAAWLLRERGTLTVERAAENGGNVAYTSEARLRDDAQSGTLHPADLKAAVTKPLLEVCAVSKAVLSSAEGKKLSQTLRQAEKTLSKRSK
- METHOD_DESCRIPTION: Trypanosoma cruzi tyrosyl tRNA synthetase (TcYRS) _High Tyrosine SOP; further: in the data most compounds retested in dose-response had high values
- Assay type: functional
- Set-up: scale not given: direction of the effect not stated beside the values
- CONDITION_LABEL: 30 µM
The following molecules are listed with their measured Percent Effect values.
# output: bare number, implied unit %

Examples with their reported Percent Effect follow.
Cc1cnn(CC2CCCN2C(=O)c2cccc(CC#N)c2)c1 (centres undefined) ... 0.493
Cc1ccc(NC(=O)c2cc(S(=O)(=O)N3CCCCC3)c[nH]2)cc1F ... 5.29
COc1ncccc1NC(=O)C1CCN(S(C)(=O)=O)CC1 ... 6.8
CCc1nnc(CNCC2CCN(CC(O)c3ccccc3)CC2)o1 (centres undefined) ... -2.08
Cc1ccc(C(=O)NC2CCN(C(=O)Nc3ccccn3)CC2)o1 ... 2.86
O=C([C@H]1CCCO1)N1CC[C@H](O)[C@@H]1Cc1ccncc1 ... 4.23
CN1CC(c2ccccc2)CC12CCN(C(=O)c1c(Cl)cnn1C)CC2 (centres undefined) ... 5.85
Cn1cccc1C1CCCN1C(=O)NCCCn1cccn1 (centres undefined) ... 4.92

Inquiry: Look up Percent Effect with Tyrosyl-tRNA synthetase, putative (Trypanosoma cruzi (strain CL Brener)) (UniProt Q4DSP6) for this molecule: CNS(=O)(=O)c1ccc(C(=O)N2CCCC(n3cccn3)C2)cc1 (centres undefined)
Reply text: 3.43

Inquiry: Form field: Percent Effect recorded for Cc1ccc(N2CCN(C(=O)COc3ccccc3)CC2)nn1 with Tyrosyl-tRNA synthetase, putative (Trypanosoma cruzi (strain CL Brener)) (UniProt Q4DSP6) (enter value)
Reply text: 5.38

Inquiry: Hi! What's the reported Percent Effect for COc1c(C2CCCN2C(=O)c2cccc(C(N)=O)c2)c(C)nn1C (centres undefined) on Tyrosyl-tRNA synthetase, putative (Trypanosoma cruzi (strain CL Brener)) (UniProt Q4DSP6)?
Reply text: 0

Inquiry: Form field - read-out: Percent Effect; system: Tyrosyl-tRNA synthetase, putative (Trypanosoma cruzi (strain CL Brener)) (UniProt Q4DSP6); submitted item: Cn1ccc(C(=O)NCc2ccc(N3CCCC3)nc2)cc1=O
Reply text: 3.68

Inquiry: Short answer please: Percent Effect, Tyrosyl-tRNA synthetase, putative (Trypanosoma cruzi (strain CL Brener)) (UniProt Q4DSP6), entry CC(C)c1nnc2n1CCN(CC(=O)N1CCc3ccccc3C1)C2
Reply text: 7.35

----------
- TESTED_TARGET: AMP-activated protein kinase, AMPK (Homo sapiens) (UniProt P54646+O43741+P54619+Q9UGJ0+Q9Y478+Q13131+Q9UGI9)
- METHOD_DESCRIPTION: AMP-dependent Kinase enzyme assay. An in vitro enzyme assay that detects ADP turnover that is directly proportional to AMPK activity. This uses naive AMPK that is activated during the assay with MK-8722
- Format: functional
- Set-up: scale not given: direction of the effect not stated beside the values
- CONDITION_LABEL: 30 µM
ASSAY_READOUT: Percent Effect (%)
Your answer should be a plain number; it is taken to be in %.

Please review the following examples before continuing.
CCCN1CCC(NC(=O)NCCc2nc(CC)c(C)s2)CC1 ... -6.84
Cn1ccnc1C(NCc1csc(Br)c1)c1ccccc1 (centres undefined) ... 3.42
Cc1nc(CN2CCCC2c2ccsc2)nc2ccccc12 (centres undefined) ... 3.32
Cc1cc(CN2CCCC(C)(CO)C2)ccc1F (centres undefined) ... -7.31
Cc1csc([C@@H]2C[C@@H]3CCN(C(=O)c4cc(C)on4)C[C@H]3O2)n1 ... -1.54
CCC1CN(CCC(=O)N(C)C)CCN1CCOC (centres undefined) ... -11.9

Inquiry: Could you tell me which Percent Effect is on file for COc1cccc(S(=O)(=O)CCN2CCCCC2)c1 ?
Reply text: -7.74

Inquiry: # query: Percent Effect of entry CCn1cc(NC(=O)NCC(c2cccc(F)c2)N(C)C)cn1 (centres undefined)
Reply text: 0.674

Inquiry: Can you share its Percent Effect? I mean this molecule: Cc1noc(C)c1CN1CCN(C(=O)Cn2cncn2)CC1
Reply text: -0.877

Inquiry: Could you share which Percent Effect value was measured for COCCc1noc(CN(C)C(=O)c2cccc(N3CCCC3=O)c2)n1 ?
Reply text: 0.707

Inquiry: Could you share which Percent Effect value was measured for Cc1noc(C)c1CN(C)C(=O)c1ccc(NC2CC2)nc1 ?
Reply text: -5.49

Inquiry: Consider the molecule shown here: CCn1cc(CN2CCCn3nc(CNC(=O)C4CCC4)cc3C2)cn1 What is its recorded Percent Effect?
Reply text: 0.185

Inquiry: Data request, read-out Percent Effect, for CNc1cc(N2CCCC2CNCc2ccc(Cl)o2)ncn1 (centres undefined)
Reply text: -2.54

Inquiry: Which value of Percent Effect has been reported for CNC(=O)c1cccc(NC(=O)CN2CCN(S(C)(=O)=O)CC2)c1 in the records?
Reply text: -6.24

Inquiry: What does the record list as Percent Effect for CCn1nc(-c2ccccc2F)ccc1=O ?
Reply text: -2.64

Inquiry: Which Percent Effect reading was recorded for the molecule CN1CC2(CCN(Cc3ccoc3)CC2)COc2ccccc2S1(=O)=O ?
Reply text: -0.665

Inquiry: Which value of Percent Effect has been reported for O=C(Nc1ccc(N2CCCC2)nc1)N1CCc2ccccc2C1 in the records?
Reply text: -13.6

Inquiry: Fill in the blank: the reported Percent Effect of O=C(NCCO)C1(Cc2cc(-c3ccc(F)cc3F)no2)CCOCC1 is ____.
Reply text: 14.6

Inquiry: Quick one: Percent Effect for CN(Cc1ccccn1)C1COC2(CCN(Cc3cccnc3)CC2)C1 (centres undefined) ?
Reply text: -2.32

Inquiry: Could you tell me which Percent Effect is on file for CCOc1cc(/C=C/c2ncc(C(=O)O)s2)cc(Cl)c1OC ?
Reply text: 6.6

Cited source for all entries: ChEMBL document CHEMBL3988442
